molecular target: AgSla1-D3; experiment: SPOT peptide array binding signal intensity (averaged, normalized) (arbitrary units (background-subtracted, floor 0; scale differs between SH3 domains)); higher = stronger binding of the SH3 domain to the peptide
MEASUREMENT_NAME: SPOT peptide array binding signal intensity

Prompt: Please supply the value of reported SPOT peptide array binding signal intensity for the item "DFTLPPPPPPPGLDE"
Completion: 0.5

Prompt: Please supply the value of reported SPOT peptide array binding signal intensity for the item "LKQRFFLMFPKSIIW"
Completion: 21

Prompt: Please supply the value of reported SPOT peptide array binding signal intensity for the item "QLMKNLPKIPLLNDI"
Completion: 2.75

Prompt: Please supply the value of reported SPOT peptide array binding signal intensity for the item "IVNKPLPPLPVAGSS"
Completion: ≤ 0

Prompt: Please supply the value of reported SPOT peptide array binding signal intensity for the item "HAPPLPPTAPPPPSL"
Completion: ≤ 0

Prompt: Please supply the value of reported SPOT peptide array binding signal intensity for the item "KRKRFNLLLPKPYLT"
Completion: 4

Prompt: Please supply the value of reported SPOT peptide array binding signal intensity for the item "TPRLSLPRLPNKHHW"
Completion: ≤ 0
